Reference for the values: the supplement of paper PMC7125110

self-cleavage kobs at 10000 uM GlcN6P values, listed per item
B1: glmS ribozyme (parent)
chain: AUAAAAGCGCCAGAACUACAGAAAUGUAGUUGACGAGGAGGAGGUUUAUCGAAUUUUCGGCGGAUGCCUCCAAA

variants of: B1; assay: self-cleavage kobs at 10000 uM GlcN6P; higher = faster cleavage; RNA array; conditions: with glucosamine-6-phosphate
Variants at the floor of the assay were thinned out.
The answer is to be given in s⁻¹; state only the numeric part.

Worked cases, answers included:
A6G C16U A39C | 6.06e-05
U65A C68A | 7.53e-05
G32A U54A | 0.00286

Q: Which measured self-cleavage kobs at 10000 uM GlcN6P value corresponds to A39U G66U C67A ?
Ans: 0.00316

Q: Now try C16U C50G G59A C68A .
Ans: 4.07e-05

Q: Another variant to check: A52U U69C
Ans: 0.000191

Q: What do you have for C58U C67G ?
Ans: 3.45e-05

Q: What would you report for A53G U55A ?
Ans: 0.065

Q: Thanks! And `C67A` ?
Ans: 0.0155

Q: Also check G37A A52U U57A
Ans: 0.000104

Q: Cool, now G41U A42U U55C C70G
Ans: 0.000238

Q: Also U54A U69C , if possible.
Ans: 0.000426

Q: What about this variant? C16G G32C
Ans: 8.49e-05

Q: Same for A15U U45A
Ans: 0.0145

Q: Same read-out for C16G C58U ?
Ans: 3.22e-05

Q: Now consider C19G G37A .
Ans: 0.00215

Q: Try this variant next: C10U U55G
Ans: 2.49e-05

Q: Then what about the variant A12G U47C ?
Ans: 0.000577

Q: Try this variant next: C50U U55A
Ans: 7.37e-05

Q: Next variant: G40C U65G
Ans: 0.000854

Q: Subsequent entry: G40U U47C
Ans: 0.00106

Q: Another variant to check: A6C U65G
Ans: 2.71e-05

Q: And what about the variant C34U C58G C68U ?
Ans: 0.000425
